Where these numbers come from: patent US20260085067A1

# Test system: pCHK1 (S345) in Colo320 DM cells
# experiment: Alphalisa assay, detection of pCHK1 (S345) in Colo320 DM cells
# Type: cell-based, human
# testContext: Homo sapiens, COLO 320DM, compound overnight (approximately 16 hours)
pIC50: −log10 of the molar value.
valueType: pIC50

Illustrative cases are given below, each with its answer.
compound	pIC50
CC(=O)c1c(Cl)ccc2c1N(C)CN([C@H](c1n[nH]c(=O)o1)[C@H](C)c1c(F)ccc(C)c1C)S2(=O)=O [Example 64]	≥ 6.00
Cc1ccc(F)c([C@@H](C)[C@@H](c2n[nH]c(=O)o2)N2CN(C3CN(C)C3)c3cc(Cl)ccc3S2(=O)=O)c1C [Example 65]	≥ 6.00
CC(=O)N1CN([C@H](c2n[nH]c(=O)o2)[C@H](C)c2c(F)ccc(C)c2C)S(=O)(=O)c2ccc(Cl)cc21 [Example 56]	5.30 to 6.00
Cc1ccc(F)c([C@@H](C)[C@@H](c2n[nH]c(=O)o2)N2CN([C@@H]3CCNC3)c3cc(Cl)ccc3S2(=O)=O)c1C [Example 58]	4.30 to 5.00

Consider the additional compound presented here.
// query Look up pIC50 of Cc1ccc(F)c([C@@H](C)[C@@H](c2n[nH]c(=O)o2)N2CN(C)c3nc(Cl)ccc3S2(=O)=O)c1C [Example 3] and report it.
// result ≥ 6.00
